experiment: Plasma pharmacokinetics after a single oral dose of rucaparib 600 mg in patients with advanced solid tumors, by hepatic function group; conditions: human, plasma, po, 600 mg, AUC0–last, Mean (SD), Child–Pugh mild hepatic impairment; single oral rucaparib 600 mg
Value kind: AUC(0-t)

Line notation: CNCc1ccc(-c2[nH]c3cc(F)cc4c3c2CCNC4=O)cc1
Value kind: AUC(0-t)
Meas value: 11600 ng·h/mL

* * *

test: Plasma pharmacokinetics after a single oral dose of rucaparib 600 mg in patients with advanced solid tumors, by hepatic function group; details: human, plasma, po, 600 mg, Cmax, Median (min–max), Child–Pugh mild hepatic impairment; single oral rucaparib 600 mg
Value kind: Cmax

Line notation: CNCc1ccc(-c2[nH]c3cc(F)cc4c3c2CCNC4=O)cc1
Value kind: Cmax
Meas value: 590 ng/mL
